# target-system: PAR4 (Homo sapiens, UniProt Q96RI0)
# Construct: expressed in transfected cells; host or cells: HEK293 PAR4 Clone 1.2A (BMS Arctic ID 383940)
# Sequence (Q96RI0 18-385): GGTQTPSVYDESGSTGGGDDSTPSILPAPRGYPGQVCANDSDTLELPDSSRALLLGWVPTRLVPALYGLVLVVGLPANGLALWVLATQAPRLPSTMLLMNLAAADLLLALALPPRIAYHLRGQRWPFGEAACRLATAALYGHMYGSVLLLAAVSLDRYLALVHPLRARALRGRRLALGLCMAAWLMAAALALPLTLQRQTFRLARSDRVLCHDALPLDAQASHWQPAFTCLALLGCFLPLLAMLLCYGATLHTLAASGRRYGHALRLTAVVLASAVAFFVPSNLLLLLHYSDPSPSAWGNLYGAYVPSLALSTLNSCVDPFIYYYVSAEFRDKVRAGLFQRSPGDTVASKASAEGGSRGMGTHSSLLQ
# experiment-summary: PAR4 FLIPR assay (antagonism of agonist peptide-induced calcium mobilization)
# Type: cell-based
With a cut-off of 3 nM, any IC50 strictly below it is called T; any IC50 meeting it or above is called F.

compound	target-system	class-name
COc1cnc2c(-c3nc4c(Cl)cc5c(c4s3)OC[C@H](COC(=O)Nc3ccnc(C)c3)O5)cc(C)cc2n1 [Example 33]	PAR4 (Homo sapiens, UniProt Q96RI0)	T
COc1cnc2c(-c3nc4ccc5c(c4s3)C[C@@H](CNC(=O)OC3CCCOC3)O5)cc(C)cc2n1 (some centres unmarked) [Example 234]	PAR4 (Homo sapiens, UniProt Q96RI0)	F
COc1cnc2c(-c3nc4cc(F)c5c(c4s3)C[C@@H](CNC(=O)C(F)(F)F)O5)cc(C)cc2n1 [Example 215]	PAR4 (Homo sapiens, UniProt Q96RI0)	T
COc1cnc2c(-c3nc4ccc5c(c4s3)OC[C@H](COC(=O)Nc3ccc(C)nc3)O5)cc(C)cc2n1 [Example 102]	PAR4 (Homo sapiens, UniProt Q96RI0)	T
COc1cnc2c(-c3nc4cc(F)c5c(c4s3)C[C@@](C)(COP(=O)(O)O)O5)cc(C)cc2n1 [Example 237]	PAR4 (Homo sapiens, UniProt Q96RI0)	F
COc1cnc2c(-c3nc4cc(F)c5c(c4s3)C[C@@H](CNC(=O)OCc3ccccc3)O5)cc(C)cc2n1 [Example 211]	PAR4 (Homo sapiens, UniProt Q96RI0)	T
COc1cnc2c(-c3nc4ccc5c(c4s3)OC[C@H](COC(=O)Nc3ccc([C@H](O)CO)nc3)O5)cc(C)cc2n1 [Example 111]	PAR4 (Homo sapiens, UniProt Q96RI0)	T
COc1cnc2c(-c3nc4ccc5c(c4s3)C[C@H](COC(=O)Nc3cnc(C)nc3)O5)cc(C)cc2n1 [Example 144]	PAR4 (Homo sapiens, UniProt Q96RI0)	T
COc1cnc2c(-c3nc4c(Cl)cc5c(c4s3)C[C@@H](COC(=O)Nc3ccc(C)nc3)O5)cc(C)cc2n1 (single isomer, unassigned) [Example 147]	PAR4 (Homo sapiens, UniProt Q96RI0)	F
COc1cnc2c(-c3nc4c(C)cc5c(c4s3)OC[C@H](COC(=O)Nc3ccnc(C)c3)O5)cc(C#N)cc2n1 [Example 92]	PAR4 (Homo sapiens, UniProt Q96RI0)	T
COc1cnc2c(-c3nc4ccc5c(c4s3)OC[C@H](COC(=O)Nc3cnc(OC[C@@H](C)O)nc3)O5)cc(Cl)cc2c1 [Example 289]	PAR4 (Homo sapiens, UniProt Q96RI0)	T
COc1ccc(NC(=O)OCC2Cc3c(cc(Cl)c4nc(-c5cc(C)cc6nc(OC)cnc56)sc34)O2)cn1 (centres unmarked) [Example 17]	PAR4 (Homo sapiens, UniProt Q96RI0)	F
COc1cnc2c(-c3nc4cc(F)c5c(c4s3)C[C@@](C)(CO)O5)cc(Cl)cc2c1 [Example 285]	PAR4 (Homo sapiens, UniProt Q96RI0)	T
CCOc1cnc2c(-c3nc4cc(F)c5c(c4s3)C[C@H](COC(=O)Nc3cnc(C)nc3)O5)cc(C)cc2n1 [Example 153]	PAR4 (Homo sapiens, UniProt Q96RI0)	T

* * *

# IC50 annotations
# target-system: PAR4 (Homo sapiens)
# Construct: expressed in transfected cells; host or cells: HEK293 PAR4 Clone 1.2A (BMS Arctic ID 383940)
# experiment-summary: PAR4 FLIPR assay (antagonism of agonist peptide-induced calcium mobilization)
# Assay type: cell-based

molecule	IC50, nM
COc1cnc2c(-c3nc4c(C)cc5c(c4s3)OCC(COC(=O)Nc3ccc(N)nc3)O5)cc(C)cc2n1 (stereo not shown)	170
COc1cnc2c(-c3nc4cc(F)c5c(c4s3)C[C@H](COC(=O)Nc3ccc(OCC(F)(F)CO)nc3)O5)cc(C)cc2n1	1.1
COc1cnc2c(-c3nc4cc(F)c5c(c4s3)C[C@H](CNC(=O)OCc3ccccc3)O5)cc(C)cc2n1	5.9
COc1cnc2c(-c3nc4c(C)cc5c(c4s3)OC[C@H](COC(=O)Nc3ccc(Cl)nc3)O5)cc(C)cc2n1	1.2

* * *

# pIC50 annotations
# target-system: PAR4 (Homo sapiens, UniProt Q96RI0)
# Construct: expressed in transfected cells; host or cells: HEK293 PAR4 Clone 1.2A (BMS Arctic ID 383940)
# experiment-summary: PAR4 FLIPR assay (antagonism of agonist peptide-induced calcium mobilization)
# Type: cell-based
# Description: The FLIPR assay is an exemplary in vitro assay for measuring the activity of the PAR4 antagonists of the present invention. In this assay, intracellular calcium mobilization is induced in PAR4 expressing cells by a PAR4 agonist and calcium mobilization is monitored. HEK293 cells stably expressing PAR4 were generated by a standard method of transfection of human PAR4 (F2R23) cDNA expression vector and selected based on PAR4 protein expression or mRNA expression. […]
pIC50: −log10 of the molar value.

molecule	pIC50
COc1cncc(NC(=O)OC[C@H]2Cc3c(c(F)cc4nc(-c5cc(C)cc6nc(OC)cnc56)sc34)O2)c1	8.30
COc1cnc2c(-c3nc4cc(F)c5c(c4s3)C[C@@](C)(CO)O5)cc(C)cc2n1	8.96
COc1cnc2c(-c3nc4c(Cl)cc5c(c4s3)OC[C@H](COC(=O)Nc3ccc(-n4cnc(C)n4)nc3)O5)cc(C)cc2n1	8.77
COc1cnc2c(-c3nc4ccc5c(c4s3)C[C@@H](CNC(=O)OCc3cccc(C#N)c3)O5)cc(C)cc2n1	8.24
COc1cnc2c(-c3nc4cc(F)c5c(c4s3)C[C@@](C)(CNC(=O)OCC(C)C)O5)cc(C)cc2n1	8.07
COc1cnc2c(-c3cc4c5c(cc(Cl)c4o3)O[C@@H](COC(=O)Nc3ccnc(C)c3)CO5)cc(C)cc2n1	8.85
COC(=O)NCC1Cc2c(ccc3nc(-c4cc(C)cc5nc(OC)cnc45)sc23)O1 (stereo not shown)	8.15
COc1cnc2c(-c3nc4cc(F)c5c(c4s3)C[C@](C)(COC(=O)Nc3cccnc3)O5)cc(C)cc2n1	8.64
COc1cnc2c(-c3nc4ccc5c(c4s3)OC[C@H](COC(=O)Nc3cnc(OCCO)nc3)O5)cc(Cl)cc2c1	8.80
COc1cnc2c(-c3nc4c(C)cc5c(c4s3)OC[C@H](COC(=O)Nc3ccc(-n4cnc(C)n4)nc3)O5)cc(C)cc2n1	7.68
COc1cnc2c(-c3nc4c(C)cc5c(c4s3)OCC(COC(=O)Nc3cncc(C(N)=O)c3)O5)cc(C)cc2n1 (stereo not shown)	7.82
COc1cnc2c(-c3nc4ccc5c(c4s3)CC(C)(CO)O5)cc(C)cc2n1 (stereo not shown)	7.35
COc1cnc2c(-c3nc4c(Cl)cc5c(c4s3)OC[C@H](COC(=O)Nc3cnc(F)c(C)c3)O5)cc(C)cc2n1	8.60
COc1cnc2c(-c3nc4cc(F)c5c(c4s3)C[C@H](COC(=O)Nc3ccc(OCCO)nc3)O5)cc(C)cc2n1	9.00
COc1cnc2c(-c3nc4c(C)cc5c(c4s3)OC[C@H](COC(=O)Nc3ccnc(C)c3)O5)cc(C(F)F)cc2n1	7.48
COc1cnc2c(-c3nc4cc(F)c5c(c4s3)C[C@H](COC(=O)Nc3ccc(C(=O)N(C)C)cc3)O5)cc(C)cc2n1	8.64
COc1cnc2c(-c3nc4c(C)cc5c(c4s3)OC[C@H](COC(=O)Nc3cnc(F)c(C)c3)O5)cc(C)cc2n1	7.64
COc1cnc2c(-c3nc4c(C)cc5c(c4s3)OC[C@H](COC(=O)Nc3ccc(C)nc3)O5)cc(C)cc2n1	9.00
COc1cnc2c(-c3nc4c(C(F)F)cc5c(c4s3)OC[C@H](COC(=O)Nc3ccc(C)nc3)O5)cc(C)cc2n1	7.48
COc1cnc2c(-c3nc4c(C)cc5c(c4s3)OCC(COC(=O)Oc3cccnc3)O5)cc(C)cc2n1 (stereo not shown)	8.00
COc1cnc2c(-c3nc4c(C(O)C(C)(C)C)cc5c(c4s3)OCO5)cc(C)cc2n1 (stereo not shown)	8.24
COc1cnc2c(-c3nc4cc(F)c5c(c4s3)[C@H](C)[C@H](CO)O5)cc(C)cc2n1 (relative stereo)	7.15
COc1cnc2c(-c3nc4ccc5c(c4s3)OC[C@H](COC(=O)Nc3ccc(C#N)nc3)O5)cc(C)cc2n1	8.80
COc1cnc2c(-c3nc4c(Cl)cc5c(c4s3)OC[C@H](COC(=O)Nc3ccc4ncsc4c3)O5)cc(C)cc2n1	7.01
COc1cnc2c(-c3nc4c(Cl)cc5c(c4s3)OC[C@H](COC(=O)Nc3ccc4[nH]c(=O)oc4c3)O5)cc(C)cc2n1	8.82
COc1cnc2c(-c3nc4cc(F)c5c(c4s3)C[C@H](CNC(=O)OC(C)(C)C)O5)cc(C)cc2n1	8.24
COc1cnc2c(-c3nc4c(C)cc5c(c4s3)OCC(COC(=O)Nc3ccc(-c4ccccc4)nc3)O5)cc(C)cc2n1 (stereo not shown)	7.46
COc1cnc2c(-c3nc4ccc5c(c4s3)C[C@@H](CNC(=O)O[C@H]3CCOC3)O5)cc(C)cc2n1	8.57
